Recorded IC50 by entry
Target: CDK2 (Homo sapiens, UniProt P24941)
Construct: High-Throughput Measurement of Cellular Endogenous CDK2; endogenous in cells; host or cells: OVCAR3
Test: Inhibition of CDK2: phospho-Rb (S807/811) HTRF measurement in OVCAR3 cells
Format: cell-based
Conditions: 24 h compound treatment, read-out: pRb (nM), IC50 in pRB(S807/811) assay

{"compound": "Cn1nc(N2CCC(=O)NC2=O)c2ccc(C3CCN(C(c4cccc(S(=O)(=O)N5CCC(Nc6ncc(C(F)(F)F)c(-c7cnn(CC(F)(F)F)c7)n6)CC5)c4)C(F)F)CC3)cc21 (centres unmarked)", "IC50": "< 100 nM"}
{"compound": "O=C1CCN(C2CCN(Cc3cccc(S(=O)(=O)N4CCC(Nc5ncc(C(F)(F)F)c(-c6cnn(CC(F)(F)F)c6)n5)CC4)c3)CC2)C(=O)N1", "IC50": "100 to 500 nM"}
{"compound": "O=C1CCC(c2ccc(N3CCN(Cc4cccc(S(=O)(=O)N5CCC(Nc6ncc(C(F)(F)F)c(-c7cnn(CC(F)(F)F)c7)n6)CC5)c4)CC3)c(C(F)(F)F)c2)C(=O)N1 (centres unmarked)", "IC50": "100 to 500 nM"}
{"compound": "C[C@@H]1CN(S(=O)(=O)c2cccc(CN3CCC(c4ccc5c(N6CCC(=O)NC6=O)nn(C)c5c4)CC3)c2)CC[C@@H]1Nc1ncc(C(F)(F)F)c(-c2cnn(CC(F)(F)F)c2)n1", "IC50": "100 to 500 nM"}
{"compound": "O=C1CCC(N2C(=O)c3cc(F)c(N4CCN(Cc5cccc(S(=O)(=O)N6CC[C@H](Nc7ncc(C(F)(F)F)c(-c8cnn(CC(F)(F)F)c8)n7)[C@H](F)C6)c5)CC4)cc3C2=O)C(=O)N1 (mixture of isomers)", "IC50": "1000 to 10000 nM"}
{"compound": "Cn1c(S(=O)(=O)N2CCC(Nc3ncc(C(F)(F)F)c(-c4cnn(CC(F)(F)F)c4)n3)CC2)cnc1CN1CCN(c2ccc(N3CCC(=O)NC3=O)cc2)CC1", "IC50": "100 to 500 nM"}
{"compound": "Cn1nc(N2CCC(=O)NC2=O)c2ccc(N3CCN(CC4CCN(S(=O)(=O)N5CCC(Nc6ncc(C(F)(F)F)c(-c7cnn(CC(F)(F)F)c7)n6)CC5)CC4)CC3)cc21", "IC50": "< 100 nM"}
{"compound": "O=C1CCC(N2C(=O)c3cc(F)c(N4CCN(Cc5cccc(S(=O)(=O)N6CCC(Nc7ncc(C(F)(F)F)c(-c8cnn(C9CCOCC9)c8)n7)CC6)c5)CC4)cc3C2=O)C(=O)N1 (centres unmarked)", "IC50": "< 100 nM"}

----------
Target: CDK2 (Homo sapiens)
Construct: High-Throughput Measurement of Cellular Endogenous CDK2; endogenous in cells; host or cells: OVCAR3
Assay: Inhibition of CDK2: phospho-Rb (S807/811) HTRF measurement in OVCAR3 cells
Assay type: cell-based
Conditions: 24 h compound treatment, read-out: pRb (nM), IC50 in pRB(S807/811) assay
Recorded IC50 by entry
value_type: IC50

{"compound": "Cn1nc(N2CCC(=O)NC2=O)c2ccc(N3CC4CCC(C3)N4Cc3cccc(S(=O)(=O)N4CC[C@H](Nc5ncc(C(F)(F)F)c(-c6cnn(CC(F)(F)F)c6)n5)[C@H](F)C4)c3)cc21", "reported": "100 to 500 nM"}
{"compound": "O=C1CCC(N2C(=O)c3cc(F)c(N4CC5(CN(Cc6cccc(S(=O)(=O)N7CCC(Nc8ncc(C(F)(F)F)c(-c9cnn(CC(F)(F)F)c9)n8)CC7)c6)C5)C4)cc3C2=O)C(=O)N1 (stereo not drawn)", "reported": "< 100 nM"}
{"compound": "Cn1c(S(=O)(=O)N2CCC(Nc3ncc(C(F)(F)F)c(-c4cnn(CC(F)(F)F)c4)n3)CC2)cnc1CN1CCN(c2ccc3c(N4CCC(=O)NC4=O)nn(C)c3c2)CC1", "reported": "< 100 nM"}
